System: U937 cells (human monocytic cell line)
Experiment: Pam2CSK4-induced TNF-α secretion inhibition in PMA-differentiated U937 cells
Assay type: cell-based
Conditions: U-937, U937 cells differentiated with PMA, read-out: TNF-α production inhibition grade (IC50)
Please respond with reported IC50 for every item in the list.

Examples with answers:
Task item: Recall and state the measured IC50 for CC[C@H]1[C@@H](O)[C@@H]2[C@H](CC[C@]3(C)[C@@H]([C@H](C)CCC(=O)N4CC[C@@H](S(=O)(=O)O)C4)CC[C@@H]23)[C@@]2(C)CC[C@@H](O)C[C@@H]12 .
Reply: < 500 nM

Task item: Recall and state the measured IC50 for C[C@H](CCC(=O)N1CCC[C@H]1CS(=O)(=O)O)[C@H]1CC[C@H]2[C@@H]3CC[C@@H]4CC(=O)CC[C@]4(C)[C@H]3CC[C@]12C .
Reply: 500 to 1000 nM

Shift focus to the following entry.
Task item: Recall and state the measured IC50 for C[C@H](CCC(=O)N1CC(S(=O)(=O)O)C1)[C@H]1CC[C@H]2[C@@H]3CC[C@@H]4C[C@H](O)CC[C@]4(C)[C@H]3C[C@H](O)[C@]12C .
Reply: ≥ 2000 nM
